Tested on: stomach cancer cell line (SNU-638)
Assay: MTT assay, 48 h, SNU-638
Details: read-out: IC50 mM of SNU-638 Stomach cancer; 48 h; MTT
# IC50 listing for each entry below

>  <Mol>
O=C([O-])C(Cl)Cl.O=C1O[C@H]([C@@H](O)CO)C([O-])=C1O.[Ca+2]

>  <IC50 (mM)>
1.4

$$$$
>  <Mol>
CC(O)C(=O)[O-].O=C1O[C@H]([C@@H](O)CO)C([O-])=C1O.[Ca+2]

>  <IC50 (mM)>
1.44

$$$$

----------
Tested on: DLD-1
Assay: Hetero salts vs homo salts, cell viability and cytotoxicity, DLD-1
Assay type: cell-based
Settings: Homo sapiens, DLD-1, read-out: cytotoxicity, DLD-1
pIC50: −log10 of the molar value.
# reported pIC50; entries follow

>  <Compound>
O=C1O[C@H]([C@@H](O)CO)C([O-])=C1O.[Na+] [Na-ASC, sodium ascorbate]

>  <System name>
DLD-1

>  <Value comparator>
=

>  <pIC50>
2.02

$$$$
>  <Compound>
O=C([O-])C(Cl)Cl.[Na+] [Na-DCA, sodium dichloroacetate]

>  <System name>
DLD-1

>  <Value comparator>
<

>  <pIC50>
2.00

$$$$
